test system: ACHN; assay: NCI tumour cell line growth inhibition, 48 h
Activity calls are given as the source filed them. Cut-off read from the data, not from the text of the source: active = GI50 up to about 1.1 µM and inactive = higher.
Write down the outcome that applies. Available outcomes: active, inactive

q: Assay outcome for `CNN1C(=O)c2c(N)c(C#N)c(-c3ccccc3)c(-c3ccccc3)c2C1=O` : what was it?
a: inactive

q: Assay outcome for `Cc1nc2ccccc2nc1CC(=O)C(=O)Nc1ccc(Cl)cc1Cl` : what was it?
a: inactive

q: Assay outcome for `O=C1Nc2cccc(C(F)(F)F)c2/C1=N/Nc1ccccc1[N+](=O)[O-]` : what was it?
a: inactive

q: Assay outcome for `CC1=C(C(=O)Nc2ccccc2C)C(c2ccccc2C)C(C(=O)Nc2ccccc2C)=C(C)N1` : what was it?
a: inactive

q: Assay outcome for `CC(C)[C@H](O)C(=O)N[C@H]1Cc2ccc3c(c2)[C@]24C5=C(N=C(O5)[C@H](C(C)C)NC1=O)c1nc(Cl)c(o1)-c1c(Cl)[nH]c5cccc(c15)-c1cccc2c1N[C@H]4O3` : what was it?
a: active

q: Assay outcome for O=C1CC(c2ccsc2)n2cccc21 (stereo unspecified) : what was it?
a: inactive

q: Assay outcome for CC(NC(=O)c1ccc(NP(=O)(OCc2ccc([N+](=O)[O-])o2)N(C)CCCCCl)cc1)c1ccc(OCC2CCCCC2)c(C(N)=O)c1 (stereo unspecified) : what was it?
a: inactive

q: Assay outcome for `CN(C)CCNC(=O)Cn1ccc(=O)c2c([N+](=O)[O-])cccc21` : what was it?
a: inactive

q: Assay outcome for `COC(=O)/C=C/c1cnc2c(c1)oc(=O)n2C` : what was it?
a: inactive

q: Assay outcome for N#CC1=C(N)OC(c2cccc([N+](=O)[O-])c2)C1(C#N)C#N (stereo unspecified) : what was it?
a: inactive

q: Assay outcome for O=C(CN1C(=O)c2ccccc2C1=O)OCC1CCCN2CCCCC12 (stereo unspecified) : what was it?
a: inactive

---

tested on: CAKI-1; test: NCI tumour cell line growth inhibition, 48 h
Activity calls are given as the source filed them. Rule as the data show it: active = GI50 up to about 1.1 µM and inactive = higher.
Write down the outcome that applies. Available outcomes: active, inactive

q: Assay outcome for `Cc1n[nH]c(=O)c2c3c([nH]c12)-c1ccccc1C3` : what was it?
a: inactive

q: Assay outcome for `O=C1Nc2c(Cl)cccc2/C1=N/Nc1ccccc1[N+](=O)[O-]` : what was it?
a: inactive

q: Assay outcome for `COC(=O)c1c(O)ccc(O)c1C(C(C)=O)C(C)=O` : what was it?
a: inactive

q: Assay outcome for CCN1CCC(O)(c2ccc([N+](=O)[O-])cc2)C(C(=O)c2ccc([N+](=O)[O-])cc2)C1 (stereo unspecified) : what was it?
a: inactive

q: Assay outcome for `N=C(N)NS(=O)(=O)c1ccc(NC(=O)c2ccc3nc4ccccc4c(Nc4ccc(S(=O)(=O)N=C(N)N)cc4)c3c2)cc1` : what was it?
a: inactive

q: Assay outcome for `CC(C)=CC(=O)CC(=O)C(=O)Nc1ccc(C)c(C)c1` : what was it?
a: inactive

q: Assay outcome for `NS(=O)(=O)c1ccc(NC2(C(=O)O)CCCC2)cc1` : what was it?
a: inactive

q: Assay outcome for O=C(N/N=C(\c1nc2ccc(Cl)cc2nc1O)C(O)c1ccccc1Cl)c1ccncc1 (stereo unspecified) : what was it?
a: inactive

q: Assay outcome for NNC(=O)N/N=C(/CC1(O)C(=O)Nc2ccc(Br)cc21)c1ccccc1 (stereo unspecified) : what was it?
a: inactive

q: Assay outcome for `Cc1ccc(N(Cc2ccccc2)Cc2ccccc2)cc1` : what was it?
a: inactive

q: Assay outcome for `CC[C@@]1(O)C(=O)OCc2c1cc1n(c2=O)Cc2c-1nc1ccccc1c2Cl` : what was it?
a: active

---

tested on: SF-268; assay: NCI tumour cell line growth inhibition, 48 h
Activity calls are given as the source filed them. No stated cut-off is given here; in the data, active = GI50 up to about 1.1 µM and inactive = higher.
Quantity Kind: GI50

q: Check the records and state GI50 for `NS(=O)(=O)c1ccc(NC2(C(=O)O)CCCC2)cc1`
a: > 100 µM (inactive)

q: Check the records and state GI50 for CC1OC(OC2C(CO)OC(O[C@H]3CC[C@@]4(C)C(=CC[C@H]5[C@@H]6C[C@@H]7O[C@]8(CC[C@@H](C)CN8)[C@@H](C)[C@@H]7[C@@]6(C)CC[C@@H]54)C3)C(O)C2O)C(O)C(O)C1O (some centres not stated)
a: > 100 µM (inactive)

q: Check the records and state GI50 for `COc1ccc2[nH]c3c4c(ccc3c2c1)C(=O)C=CC4=O`
a: 17.1 µM (inactive)

q: Check the records and state GI50 for C=CCC(C)C12CCNC(Cc3ccc(O)cc31)C2C (configuration not stated)
a: > 100 µM (inactive)

q: Check the records and state GI50 for `O=C1NC(=S)NC(=O)C1=Cc1ccc[nH]1`
a: 22.6 µM (inactive)

q: Check the records and state GI50 for `CCOC(=O)[C@@]12CCC(C1=O)[C@](C)(O)C[C@@H]2c1ccccc1`
a: 36.2 µM (inactive)

q: Check the records and state GI50 for C=CCCC(OCOCCOC)c1cc(C)c(O[Si](C)(C)C(C)(C)C)c(C)c1 (configuration not stated)
a: 15.2 µM (inactive)

q: Check the records and state GI50 for NNC(=O)N/N=C(/CC1(O)C(=O)Nc2ccc(Br)cc21)c1ccccc1 (configuration not stated)
a: 21.5 µM (inactive)

q: Check the records and state GI50 for COc1ccc2c3c(ccc2c1)NC(C(=O)O)CC3 (configuration not stated)
a: 39.1 µM (inactive)

q: Check the records and state GI50 for CC(CO)(CBr)COC(=O)c1cc(Br)c(N)c(Br)c1 (configuration not stated)
a: 29.3 µM (inactive)

q: Check the records and state GI50 for `NC(=O)c1c(-c2ccccc2)c(-c2ccccc2)cc2c(=O)c3ccccc3[nH]c12`
a: 39 µM (inactive)

q: Check the records and state GI50 for CCC/C(=N\NC(=O)c1cc2ccccc2cc1O)C(CC)C(=O)CCC(=O)N(Cc1ccccc1)Cc1ccccc1 (configuration not stated)
a: 19.7 µM (inactive)

---

Provide the recorded GI50 for the entries that follow.
test system: K562; experiment: NCI tumour cell line growth inhibition, 48 h
The source made the active and inactive calls. No stated cut-off is given here; in the data, active = GI50 up to about 1.1 µM and inactive = higher.

q: Write down the reported GI50 (system: K562) of CC(=O)OCC1OC(O[C@@H]2C[C@H]3C(C)(C)[C@@H](OC(C)=O)CC[C@]3(C)[C@H]3CC[C@]45C[C@]4(CC[C@H]5[C@@H](C)C[C@@H](O)[C@H](O)C(C)(C)F)[C@@]32C)C(O)C(O)C1O (some centres undefined)
a: 1.6 µM (inactive)

q: Write down the reported GI50 (system: K562) of COc1ccccc1N1C(=O)/C(=C\c2cc(OC)c(OC)c(OC)c2)S(=O)(=O)C1c1ccccc1 (centres undefined)
a: 28.6 µM (inactive)

q: Write down the reported GI50 (system: K562) of `CC(=O)NC1=C(NC(C)(C)C)C(=O)c2ccccc2C1=O`
a: 7.19 µM (inactive)

q: Write down the reported GI50 (system: K562) of `CN(C)CCNC(=O)Cn1ccc(=O)c2c([N+](=O)[O-])cccc21`
a: > 100 µM (inactive)

q: Write down the reported GI50 (system: K562) of COc1cc2c(cc1OC)C(N)CC2=O (centres undefined)
a: > 100 µM (inactive)

q: Write down the reported GI50 (system: K562) of `CCCN(CCC)C(=O)Cc1c2n(c3ccccc13)Cc1ccccc1-2`
a: > 100 µM (inactive)

q: Write down the reported GI50 (system: K562) of O=C1OC(=O)C2C3C=CC(C12)C1C2C=CC2C31 (centres undefined)
a: > 100 µM (inactive)

q: Write down the reported GI50 (system: K562) of `COC(=O)c1c(O)ccc2c1c1c(n2CCc2ccccc2)C(=O)c2ccccc2C1`
a: 37.6 µM (inactive)

q: Write down the reported GI50 (system: K562) of `CC(=O)/N=C1/N(/C=C2\C(=O)Oc3ccccc3C2=O)C(=O)/C(=C/c2ccccc2Cl)N1C`
a: > 100 µM (inactive)

q: Write down the reported GI50 (system: K562) of `N/C(=N\N=C\c1cc2ccccc2s1)c1cnccn1`
a: 3.85 µM (inactive)

q: Write down the reported GI50 (system: K562) of `CCO/N=[N+](\[O-])N(CC)CC`
a: > 100 µM (inactive)

q: Write down the reported GI50 (system: K562) of CC1OC(OC2C(CO)OC(O[C@H]3CC[C@@]4(C)C(=CC[C@H]5[C@@H]6C[C@@H]7O[C@]8(CC[C@@H](C)CN8)[C@@H](C)[C@@H]7[C@@]6(C)CC[C@@H]54)C3)C(O)C2O)C(O)C(O)C1O (some centres undefined)
a: > 100 µM (inactive)

q: Write down the reported GI50 (system: K562) of `Nc1n[n+](-c2ccccc2)no1`
a: 4.85 µM (inactive)

q: Write down the reported GI50 (system: K562) of `O=c1c(Nc2ccccc2)cn(CCOc2ccc(Cl)cc2)c(=O)n1CCOc1ccc(Cl)cc1`
a: > 100 µM (inactive)
